Hello, the source for this data is PubChem BioAssay, in case you need it.

Assay: RPMI8226 myeloma cell viability, profiling panel, resazurin fluorescence, basal, 24 h, PK04 Diversity Set (AID 1180);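 further: RPMI8826 multiple myeloma cell line at 5000 cells per well; test concentration not given here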
Settings: higher = more signal
Please provide measured z-score for the entries that follow.
Answers are plain numbers.

List z-score for every entry below, keeping the order given.
1. Cc1cccc([C@H]2C[C@H]3C(I)=C[C@@H]2C(=O)[C@]32CO2)c1
2. [N-]=[N+]=Nc1ccccc1C[C@]1(C(=O)O)N=C(c2ccc(OCCCO)cc2)O[C@H]1c1ccccc1N=[N+]=[N-]
3. C[C@]1(C(=O)NCCN2CCOCC2)c2ccccc2C(=O)N(Cc2cc(F)cc(C(F)(F)F)c2)[C@H]1c1ccc(CO)cc1
4. CC(=O)NCCCC[C@@H]1NC(=O)[C@@H]2C[C@H](C(=O)NCCCCCCN)[C@H](c3cccc(OCCO)c3)N2C1=O
5. C=CCC(OC(C)=O)[C@@H]1[C@@H](N(Cc2cccc3ccccc23)C(=O)c2ccc(-c3ccccc3)cc2)c2cc(OCCCO)ccc2N1C(=O)c1ccc(-c2ccccc2)cc1 (stereo partly specified)
6. CN(C)CCCCNC(=O)[C@H]1C[C@H]2C(=O)N[C@@H](CCCC[N+](C)(C)C)C(=O)N2[C@H]1c1ccc(O)cc1

Result block:
0.305
-0.215
0.0794
-0.257
0.0263
0.643

###

Molecular target: Albumin (Bos taurus) (UniProt P02769)
Sequence (P02769 whole entry, looked up): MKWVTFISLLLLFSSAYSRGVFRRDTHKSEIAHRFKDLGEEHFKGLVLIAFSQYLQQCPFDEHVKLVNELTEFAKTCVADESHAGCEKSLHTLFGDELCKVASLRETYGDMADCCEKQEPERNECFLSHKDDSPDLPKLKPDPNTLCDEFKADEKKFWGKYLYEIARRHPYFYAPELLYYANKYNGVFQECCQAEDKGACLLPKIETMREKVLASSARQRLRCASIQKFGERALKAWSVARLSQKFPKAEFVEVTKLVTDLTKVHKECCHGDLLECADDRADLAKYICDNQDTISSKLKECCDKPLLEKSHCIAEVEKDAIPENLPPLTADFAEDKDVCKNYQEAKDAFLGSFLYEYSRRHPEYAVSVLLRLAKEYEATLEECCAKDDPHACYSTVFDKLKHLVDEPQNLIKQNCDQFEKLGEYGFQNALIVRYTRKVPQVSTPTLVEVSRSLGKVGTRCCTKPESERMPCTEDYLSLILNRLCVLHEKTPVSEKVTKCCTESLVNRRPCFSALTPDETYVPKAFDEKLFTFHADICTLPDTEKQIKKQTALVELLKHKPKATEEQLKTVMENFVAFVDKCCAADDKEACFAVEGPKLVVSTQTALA
Test: bovine serum albumin binders on microarray, profiling panel, artefact control for SMM control protein annotation, biochemical, small-molecule microarray, Alexa647 label, 635/667 nm fluorescence (AID 1118);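 further: score merges 667 nm emission intensity and signal-to-noise per printed compound spot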
Settings: BSA-A647 binding, fluorescence 635 nm, higher = more signal
observable: composite z-score
One number for each entry.

compound	composite z-score
Cc1ccc(S[C@]2(C(=O)NCc3ccccc3)CC(=O)N(Cc3cc(C(F)(F)F)cc(C(F)(F)F)c3)[C@@H]2c2ccc(CO)cc2I)cc1	-0.618
C=CCC(OC(C)=O)[C@@H]1[C@@H](N(Cc2cccc3ccccc23)C(=O)Cc2ccc(F)cc2)c2cc(OCCCO)ccc2N1C(=O)c1ccc(-c2ccccc2)cc1 (some centres undefined)	0.621
CC(C)=CCCC(C)=CC(O)C1C=CC2C(=O)N(c3ccccc3)C(=O)C2N1Nc1ccccc1F (centres undefined)	0.846
COC(=O)[C@@]1(Cc2ccc(OC)cc2)[C@H]2c3cc(C(=O)N4CCCC4)n(Cc4cc(C)n(C)n4)c3C[C@H]2CN1C(=O)c1ccccc1	1.09
C=CCNC(=O)[C@H]1[C@@H]2C(=O)O[C@@H](c3ccccc3)[C@@H](c3ccccc3)N2[C@@H](c2ccc(O)cc2)[C@]12C(=O)N(C(=O)OCCOC)c1ccc(C#CCC(C(=O)OC)C(=O)OC)cc12	0.675
CC(C)OC(=O)CC(=O)CC(O)c1ccc([N+](=O)[O-])cc1 (centres undefined)	0.169

Items follow; give composite z-score for each.
1. O=C(NCCN1CCOCC1)[C@@H]1c2ccccc2C(=O)N(Cc2ccccc2)[C@H]1c1ccc(CO)cc1
2. C=C[C@@H](OC)[C@H](OC(=O)Nc1ccc(OC)cc1)c1ccc(OC)c(O)c1
3. O=C1N[C@@H](Cc2ccccc2)C(=O)N2[C@@H]1C[C@@H](C(=O)O)[C@H]2c1ccc(O)cc1
4. C=CCC(OC(C)=O)[C@@H]1[C@@H](N(Cc2cccc3ccccc23)C(=O)c2cccc3ccccc23)c2cc(OCCCO)ccc2N1C(=O)c1ccc2ccccc2c1 (some centres undefined)
5. C=C(/C(=C/C[C@H](OC(=O)c1ccncc1)c1cccc(OCCO)c1)c1cnc2ccccc2c1)C(C)C
6. CC1(C)C(=O)C(c2ccccc2)=C2CN3C(=O)N(CCc4ccccc4)C(=O)C3(Cc3ccc(C(F)(F)F)cc3)C=C21 (centres undefined)
7. C=C(C)[C@@H]1CC=C(C(O)C2C=CC3C(=O)N(c4ccccc4)C(=O)C3N2Nc2ccc(C#N)cc2)CC1 (some centres undefined)
8. CC(=O)NCCCC[C@@H]1NC(=O)[C@H]2C[C@@H](C(=O)NCCCCCNC(=O)CS)[C@@H](c3cccc(OCCO)c3)N2C1=O

Result block:
1. 0.16
2. -0.787
3. 0.145
4. 0.0949
5. -0.134
6. 0.925
7. 0.971
8. 0.419

###

Test: COS7 lysate on small-molecule microarray, probe aHis, 635 nm (AID 1123);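 further: z-score combines 667nm fluorescence intensity with signal-to-noise per printed compound spot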
Conditions: COS7 cell lysate, fluorescence, higher = more signal
Mark f for composite z-score values under 2, and t for everything at or above.

molecule	label class
[N-]=[N+]=NCc1ccccc1[C@H]1OC(c2ccc(OCCCO)cc2)=N[C@@]1(CCS(=O)(=O)c1ccccc1)C(=O)NCc1ccccc1	f
COc1cc(NN2C(C(O)C3CCCCC3)C=CC3C(=O)N(C)C(=O)C32)cc(OC)c1OC (configuration not stated)	t
C=C(COC)C(=O)CC[C@@H](OC(=O)c1cccnc1)c1ccccc1OCCO	f
CN(C)CCCNC(=O)[C@@H]1c2ccccc2C(=O)N(C2CCCCC2)[C@H]1c1ccc(CO)cc1	f
NC(=O)NCC#Cc1ccc2c(c1)[C@]1(C(=O)N2)[C@H](C(=O)N2CCN(c3ncccn3)CC2)[C@H]2C(=O)O[C@H](c3ccccc3)[C@H](c3ccccc3)N2[C@@H]1c1ccc(OCCO)cc1	f
CN(C)C(=O)[C@@]1(CCC(=O)OC(C)(C)C)N=C(c2ccc(OCCCO)cc2)O[C@H]1c1ccccc1CN=[N+]=[N-]	t

Next up:
Query block: Can "COCCOC(=O)N1C(=O)[C@@]2(c3cc(C#CCCO)ccc31)[C@H](C(=O)N1CCCCCCC1)[C@H]1C(=O)O[C@H](c3ccccc3)[C@H](c3ccccc3)N1[C@@H]2c1ccccc1OCCO" be said to have composite z-score at or above 2?
Result block: t

###

Test: MM1S cell viability effects, profiling panel, calcein-AM fluorescence, 48 h, basal (AID 1165);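 further: viability of MM1S multiple myeloma cells under basal unstimulated conditions; test concentration not given here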
Conditions: higher = more signal
# z-score >= -3 gives Condition met, anything below gives Condition not met

Query block: Assess whether reported z-score for "Cc1c(NC(=O)/C(C#N)=C/c2ccccc2Cl)c(=O)n(-c2ccccc2)n1C" sits at -3 or higher.
Result block: Condition met

Query block: Does the molecule "[N-]=[N+]=NCc1ccccc1C[C@]1(C(=O)N2CCOCC2)COC(c2ccc(OCCCO)cc2)=N1" have recorded z-score that is -3 or more?
Result block: Condition not met

Query block: Given the entry C=CCC(OC(C)=O)[C@@H]1[C@@H](N(Cc2ccc(-c3cccc(C(F)(F)F)c3)o2)C(=O)c2ccc(C)cc2)c2cc(OCCCO)ccc2N1C(=O)Cc1ccc(OC)cc1 (some centres not stated) , answer whether its z-score meets or surpasses -3.
Result block: Condition met

Query block: In plain terms: is recorded z-score at least -3 for O=C1C2C=CC(C(O)c3cc(C(F)(F)F)cc(C(F)(F)F)c3)N(Nc3ccccc3F)C2C(=O)N1c1ccccc1 (configuration not stated) ?
Result block: Condition not met

###

Test system: Chordin-like protein 2 (CHRDL2)
Test: CHRDL2 small-molecule binders, primary screen, biochemical, small-molecule microarray, 635 nm fluorescence (AID 1126);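 further: printed compound slides probed with Chrdl2 protein at 4 µg/mL for 1 h at 4 C; score merges 667 nm emission intensity with signal to noise over three replicate slides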
Conditions: small-molecule microarray binding, fluorescence 635 nm; higher = more signal
observable: composite z-score

Sample records with composite z-score:
molecule	composite z-score
C=C(COC)C(=O)CC[C@H](OC(=O)c1cccnc1)c1ccc(CO)o1	0.686
COCCOC(=O)N1C(=O)[C@@]2(c3cc(C#CCNC(N)=O)ccc31)[C@H](c1ccc(OCCO)cc1)N1[C@H](c3ccccc3)[C@H](c3ccccc3)OC(=O)[C@H]1[C@@H]2C(=O)NC[C@H](O)c1ccccc1	0.84
C=C[C@@H](C)[C@@H](OC(=O)Nc1ccc(SC)cc1)c1ccc(OCCO)cc1	-0.506

Each molecule below has a reported value. Please supply its composite z-score.
1. [N-]=[N+]=Nc1ccccc1C[C@@]1(C(=O)O)N=C(c2ccc(OCCCO)cc2)O[C@@H]1c1ccccc1N=[N+]=[N-]
2. CN1C(=O)C2C=CC(C(O)c3cc(C(F)(F)F)cc(C(F)(F)F)c3)N(NC(=O)OC(C)(C)C)C2C1=O (centres undefined)
3. CC(C)C[C@@H]1NC(=O)[C@@H]2C[C@H](C(=O)NCCCCCC[N+](C)(C)C)[C@H](c3cccc(OCCO)c3)N2C1=O

Result block:
1: -0.91; 2: -1.08; 3: 0.562

List composite z-score for every entry below, keeping the order given.
1. C=C(COC)/C(=C/C[C@H](OC(C)=O)c1cccc(OCCO)c1)c1cnc2ccccc2c1
2. C=C(/C(=C/C[C@@H](OC(C)=O)c1ccc(OCCO)cc1)c1cc(C(=O)OC)ccc1OC)C(C)C
3. C=CCC(OC(C)=O)[C@@H]1[C@@H](N(Cc2cccc3ccccc23)C(=O)Cc2ccc(F)cc2)c2cc(OCCCO)ccc2N1C(=O)c1ccc(-c2ccccc2)cc1 (some centres undefined)
4. COc1ccc(NC(=O)O[C@H]2[C@@H]3OC(=O)[C@H](Cc4cccc(Br)c4)C/C=C/C[C@@H](Cc4cccc(Br)c4)C(=O)O[C@H]3[C@@H](OC)O[C@@H]2CO)cc1

Result block:
1: 1.35; 2: -0.137; 3: -0.335; 4: 0.145

Your task in this section: give composite z-score for each listed record.
1. COc1ccc(C(=O)Nc2cccc(CN3C(=O)[C@]4(O[C@H](CCn5cc([C@H](O)c6ccccc6)nn5)[C@@H]([Si](C)(C)c5ccc(OC)cc5)[C@@H]4C)c4ccccc43)c2)cc1
2. CCCNC(=O)[C@@]1(Sc2ccc(C)cc2)CC(=O)N(C(C)C)[C@@H]1c1ccc(CO)cc1I
3. COCCOC(=O)N1C(=O)[C@@]2(c3cc(C#CC4=CCCCC4)ccc31)[C@H](c1ccc(O)cc1)N1[C@H](c3ccccc3)[C@H](c3ccccc3)OC(=O)[C@H]1[C@@H]2C(=O)NC[C@H](O)c1ccccc1
4. CC(C)C[C@@H]1NC(=O)CNC(=O)[C@@]23C(=O)N[C@@H](Cc4ccccc4)C2[C@H](C)[C@@]2(C)O[C@H]2C3/C=C/C/C=C\CNC1=O (some centres undefined)

Result block:
1: 0.153; 2: -2.46; 3: 0.642; 4: 0.764
